systemName: Progesterone receptor (Bos taurus)
Sequence (Q690N0 whole entry): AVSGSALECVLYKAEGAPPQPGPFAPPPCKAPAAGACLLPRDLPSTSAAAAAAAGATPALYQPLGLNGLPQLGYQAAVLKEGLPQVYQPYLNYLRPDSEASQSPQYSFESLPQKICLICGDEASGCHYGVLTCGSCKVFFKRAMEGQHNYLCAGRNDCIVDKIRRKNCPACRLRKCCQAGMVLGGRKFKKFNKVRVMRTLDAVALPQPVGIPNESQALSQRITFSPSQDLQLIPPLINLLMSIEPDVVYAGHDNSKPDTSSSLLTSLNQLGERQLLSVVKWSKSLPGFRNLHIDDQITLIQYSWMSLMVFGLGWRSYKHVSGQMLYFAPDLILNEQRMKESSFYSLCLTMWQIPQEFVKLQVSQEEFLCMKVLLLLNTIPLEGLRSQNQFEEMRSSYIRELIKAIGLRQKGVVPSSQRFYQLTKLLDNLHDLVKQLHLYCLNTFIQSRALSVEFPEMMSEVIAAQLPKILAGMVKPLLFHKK
assayOverview: DRUGMATRIX: Progesterone radioligand binding (ligand: [3H] R-5020)
Format: tissue-based, Uterus
measurementSetup: Not Active = under 50% inhibition at 10 µM
Where a SMILES comes first, the peptide text is derived from it. Bridges are numbered along the chain shown (N, C = ends). [ ]: non-standard residue; d: D form. The star is where a group is joined. Threoninol(2S,3R) = C[C@@H](O)[C@H](CO)N*
measuredParameter: IC50

Worked set:
1. Cc1ccc(S(=O)(=O)NC(=O)NN2CC3CCCC3C2)cc1 (stereo unspecified) [GLICLAZIDE]: Not Active
2. NC(=O)c1cnccn1 [PYRAZINAMIDE]: Not Active
3. CO[C@H]1/C=C/O[C@@]2(C)Oc3c(C)c(O)c4c(c3C2=O)C2=NC3(CCN(CC(C)C)CC3)NC2=C(NC(=O)/C(C)=C\C=C\[C@H](C)[C@H](O)[C@@H](C)[C@@H](O)[C@@H](C)[C@H](OC(C)=O)[C@@H]1C)C4=O: Not Active
4. COCCOC(=O)C1=C(C)NC(C)=C(C(=O)OC(C)C)C1c1cccc([N+](=O)[O-])c1 (stereo unspecified): Not Active
5. O=C1CCC(N2C(=O)c3ccccc3C2=O)C(=O)N1 (stereo unspecified) [THALIDOMIDE]: Not Active

Asked: Any idea what its IC50 is? The compound is C[C@@H](O)[C@H](CO)NC(=O)[C@@H]1CSSC[C@H](NC(=O)[C@H](N)Cc2ccccc2)C(=O)N[C@@H](Cc2ccccc2)C(=O)N[C@H](Cc2c[nH]c3ccccc23)C(=O)N[C@@H](CCCCN)C(=O)N[C@@H]([C@@H](C)O)C(=O)N1 (H-[dF]CF[dW]KTC-{Threoninol(2S,3R)}; disulfide 2-7)
Given back: Not Active

---

systemName: 5-hydroxytryptamine receptor 1A (Rattus norvegicus, UniProt P19327); further: in other assays of this panel Not Active means under 50% inhibition at 10 µM
Sequence (P19327 whole entry): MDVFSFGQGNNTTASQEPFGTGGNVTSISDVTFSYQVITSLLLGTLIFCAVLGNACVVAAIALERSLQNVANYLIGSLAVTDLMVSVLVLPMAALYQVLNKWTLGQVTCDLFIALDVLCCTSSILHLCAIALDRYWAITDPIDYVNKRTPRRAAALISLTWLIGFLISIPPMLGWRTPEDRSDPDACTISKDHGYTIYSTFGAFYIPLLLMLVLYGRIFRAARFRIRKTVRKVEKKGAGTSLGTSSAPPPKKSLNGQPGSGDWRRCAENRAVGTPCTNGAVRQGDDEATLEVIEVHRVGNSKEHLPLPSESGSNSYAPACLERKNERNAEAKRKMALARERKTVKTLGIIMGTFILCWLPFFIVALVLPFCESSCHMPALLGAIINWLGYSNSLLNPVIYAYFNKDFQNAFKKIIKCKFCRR
Format: cell membranes, Membrane
measurementSetup: cho-k1
Where a SMILES comes first, the peptide text is derived from it. Bridges are numbered along the chain shown (N, C = ends). [ ]: non-standard residue; d: D form. The star is where a group is joined. Threoninol(2S,3R) = C[C@@H](O)[C@H](CO)N*
measuredParameter: IC50

Here are 5 molecules together with their reported answers.
1. C[C@@H](O)[C@H](CO)NC(=O)[C@@H]1CSSC[C@H](NC(=O)[C@H](N)Cc2ccccc2)C(=O)N[C@@H](Cc2ccccc2)C(=O)N[C@H](Cc2c[nH]c3ccccc23)C(=O)N[C@@H](CCCCN)C(=O)N[C@@H]([C@@H](C)O)C(=O)N1 (H-[dF]CF[dW]KTC-{Threoninol(2S,3R)}; disulfide 2-7): Not Active
2. S=C=Nc1cccc2ccccc12 [1-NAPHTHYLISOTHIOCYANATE]: Not Active
3. Cc1cc2cc3c(C)cc(=O)oc3c(C)c2o1: Not Active
4. CC(=O)N1CCN(c2ccc(OCC3COC(Cn4ccnc4)(c4ccc(Cl)cc4Cl)O3)cc2)CC1 (stereo not drawn): Not Active
5. Clc1ccc2c(c1)C(N1CCNCC1)=Nc1ccccc1O2: Not Active

Asked: Any idea what IC50 was measured for Nc1ccn([C@@H]2CS[C@H](CO)O2)c(=O)n1 ?
Given back: Not Active

Asked: Now the same for COc1cccc2c1C(=O)c1c(O)c3c(c(O)c1C2=O)C[C@@](O)(C(=O)CO)C[C@@H]3O[C@H]1C[C@H](N)[C@H](O)[C@H](C)O1
Given back: Not Active

Asked: Please give the result for COc1ccc2cc([C@H](C)C(=O)O)ccc2c1 too.
Given back: Not Active

---

assayOverview: DRUGMATRIX: GABAA, Flunitrazepam, Central radioligand binding (ligand: [3H] Flunitrazepam)
Type: cell membranes, Rattus norvegicus, Wistar, Brain, Membrane
measurementSetup: Not Active = under 50% inhibition at 10 µM
measuredParameter: IC50

Reference set, count: 4
1. COc1ccc2c(c1)[C@]13CCCC[C@@H]1[C@H](C2)N(C)CC3: Not Active
2. Cc1ncc([N+](=O)[O-])n1CCO: Not Active
3. COC(=O)C1=C(C)NC(C)=C(C(=O)OCC(C)C)C1c1ccccc1[N+](=O)[O-] (stereo not given): Not Active
4. NC(=O)NO [HYDROXYUREA]: Not Active

Asked: Which measured IC50 value corresponds to Cc1onc(-c2ccccc2)c1-c1ccc(S(N)(=O)=O)cc1 ?
Given back: Not Active

---

systemName: Receptor tyrosine-protein kinase erbB-2 (Homo sapiens, UniProt P04626); further: in other assays of this panel Not Active means under 50% inhibition at 10 µM;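 further: inhibition of HER2 kinase enzyme activity, measured with Poly(Glu:Tyr) as the phosphorylation substrate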
Sequence (P04626 whole entry): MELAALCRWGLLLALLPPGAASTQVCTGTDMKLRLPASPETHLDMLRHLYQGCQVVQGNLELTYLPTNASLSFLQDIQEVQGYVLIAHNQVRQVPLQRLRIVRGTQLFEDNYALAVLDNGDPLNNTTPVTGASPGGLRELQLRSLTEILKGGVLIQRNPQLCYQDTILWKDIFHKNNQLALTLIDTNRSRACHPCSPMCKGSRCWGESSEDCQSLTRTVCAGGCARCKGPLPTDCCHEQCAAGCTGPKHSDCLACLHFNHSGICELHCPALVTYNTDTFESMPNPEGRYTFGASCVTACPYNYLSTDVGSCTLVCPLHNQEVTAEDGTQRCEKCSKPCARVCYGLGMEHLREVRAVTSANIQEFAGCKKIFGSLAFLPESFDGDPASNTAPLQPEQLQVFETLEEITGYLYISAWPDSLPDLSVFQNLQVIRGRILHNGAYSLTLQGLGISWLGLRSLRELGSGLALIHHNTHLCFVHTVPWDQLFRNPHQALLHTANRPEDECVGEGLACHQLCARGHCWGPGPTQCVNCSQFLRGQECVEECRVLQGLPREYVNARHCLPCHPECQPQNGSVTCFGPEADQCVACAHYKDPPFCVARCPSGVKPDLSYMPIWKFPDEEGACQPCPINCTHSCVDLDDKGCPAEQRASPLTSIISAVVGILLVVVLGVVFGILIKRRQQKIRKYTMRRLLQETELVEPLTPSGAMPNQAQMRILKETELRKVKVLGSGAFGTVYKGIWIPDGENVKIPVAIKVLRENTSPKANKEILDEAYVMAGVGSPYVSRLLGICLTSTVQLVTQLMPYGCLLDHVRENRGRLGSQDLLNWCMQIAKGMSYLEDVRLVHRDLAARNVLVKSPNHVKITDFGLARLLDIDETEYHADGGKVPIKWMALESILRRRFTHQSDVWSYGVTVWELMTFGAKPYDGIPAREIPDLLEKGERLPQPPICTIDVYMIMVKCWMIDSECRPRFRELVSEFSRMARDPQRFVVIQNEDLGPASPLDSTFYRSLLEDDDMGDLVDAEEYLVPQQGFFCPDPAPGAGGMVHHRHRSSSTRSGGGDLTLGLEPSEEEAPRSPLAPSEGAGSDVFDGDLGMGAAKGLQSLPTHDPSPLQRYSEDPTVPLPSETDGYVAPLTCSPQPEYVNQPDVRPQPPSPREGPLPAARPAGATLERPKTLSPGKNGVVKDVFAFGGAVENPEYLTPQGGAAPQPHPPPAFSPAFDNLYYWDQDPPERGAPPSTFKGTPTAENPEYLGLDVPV
assayOverview: biochemical
Type: cell-based, Insect cells
measurementSetup: insect cells
measuredParameter: IC50

1. C[C@H]1C[C@H]2[C@@H]3CCC4=CC(=O)C=C[C@]4(C)[C@@]3(Cl)[C@@H](O)C[C@]2(C)[C@@]1(O)C(=O)CO: Not Active
2. CC/C(=C(/CC)c1ccc(O)cc1)c1ccc(O)cc1: Not Active
3. COc1ccc2cc([C@H](C)C(=O)O)ccc2c1: Not Active
4. O=C(O)Cc1ccccc1Nc1c(Cl)cccc1Cl: Not Active

---

assayOverview: DRUGMATRIX: Imidazoline I2, Central radioligand binding (ligand: [3H] Idazoxan)
Format: cell membranes, Rattus norvegicus, Wistar, Cerebral cortex, Membrane
measurementSetup: Not Active = under 50% inhibition at 10 µM
measuredParameter: IC50

1) COc1cccc2c1C(=O)c1c(O)c3c(c(O)c1C2=O)C[C@@](O)(C(=O)CO)C[C@@H]3O[C@H]1C[C@H](N)[C@H](O)[C@H](C)O1: Not Active
2) CCCC(CCC)C(=O)O: Not Active
3) CO[C@H]1/C=C/O[C@@]2(C)Oc3c(C)c(O)c4c(c3C2=O)C2=NC3(CCN(CC(C)C)CC3)NC2=C(NC(=O)/C(C)=C\C=C\[C@H](C)[C@H](O)[C@@H](C)[C@@H](O)[C@@H](C)[C@H](OC(C)=O)[C@@H]1C)C4=O: Not Active

---

systemName: Platelet-activating factor receptor (Homo sapiens); further: in other assays of this panel Not Active means under 50% inhibition at 10 µM
Sequence (P25105 whole entry): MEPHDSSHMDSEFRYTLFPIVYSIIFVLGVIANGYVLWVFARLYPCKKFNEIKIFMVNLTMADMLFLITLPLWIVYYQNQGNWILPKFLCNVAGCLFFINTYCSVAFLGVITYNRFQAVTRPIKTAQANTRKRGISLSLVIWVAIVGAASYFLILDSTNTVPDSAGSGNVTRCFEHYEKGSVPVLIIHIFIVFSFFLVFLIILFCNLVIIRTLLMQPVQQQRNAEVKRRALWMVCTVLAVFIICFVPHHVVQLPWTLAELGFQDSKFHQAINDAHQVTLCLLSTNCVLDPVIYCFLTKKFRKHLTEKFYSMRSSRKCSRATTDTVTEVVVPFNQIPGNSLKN
Assay type: tissue-based
Where a SMILES comes first, the peptide text is derived from it. Bridges are numbered along the chain shown (N, C = ends). [ ]: non-standard residue; d: D form. The star is where a group is joined. Threoninol(2S,3R) = C[C@@H](O)[C@H](CO)N*
measuredParameter: IC50

1. O=C1CCC(N2C(=O)c3ccccc3C2=O)C(=O)N1 (stereo not drawn) [THALIDOMIDE]: Not Active
2. C[C@@H](O)[C@H](CO)NC(=O)[C@@H]1CSSC[C@H](NC(=O)[C@H](N)Cc2ccccc2)C(=O)N[C@@H](Cc2ccccc2)C(=O)N[C@H](Cc2c[nH]c3ccccc23)C(=O)N[C@@H](CCCCN)C(=O)N[C@@H]([C@@H](C)O)C(=O)N1 (H-[dF]CF[dW]KTC-{Threoninol(2S,3R)}; disulfide 2-7): Not Active
3. COc1cc(NS(=O)(=O)c2ccc(N)cc2)nc(OC)n1: Not Active

---

systemName: Cathepsin G (Homo sapiens, UniProt P08311); further: in other assays of this panel Not Active means under 50% inhibition at 10 µM
Sequence (P08311 whole entry): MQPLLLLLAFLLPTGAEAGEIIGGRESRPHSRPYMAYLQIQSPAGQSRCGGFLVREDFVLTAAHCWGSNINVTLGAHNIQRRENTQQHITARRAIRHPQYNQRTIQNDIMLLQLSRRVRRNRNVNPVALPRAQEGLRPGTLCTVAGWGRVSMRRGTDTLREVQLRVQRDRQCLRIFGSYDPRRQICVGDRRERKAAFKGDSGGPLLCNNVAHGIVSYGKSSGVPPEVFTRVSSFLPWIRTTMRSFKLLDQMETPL
Format: tissue-based
measurementSetup: neutrophil
measuredParameter: IC50

# annotated cases, reported IC50 shown
1) C=C1CC[C@H](O)C/C1=C/C=C1\CCC[C@]2(C)[C@@H]([C@H](C)CCCC(C)C)CC[C@@H]12: Not Active
2) CN1CCC(=C2c3ccccc3C=Cc3ccccc32)CC1: Not Active
3) COCCCOc1ccnc(C[S+]([O-])c2nc3ccccc3[nH]2)c1C (configuration not stated): Not Active
4) CC[C@]1(O)C[C@@H]2CN(CCc3c([nH]c4ccccc34)[C@@](C(=O)OC)(c3cc4c(cc3OC)N(C)[C@H]3[C@@](O)(C(=O)OC)[C@H](OC(C)=O)[C@]5(CC)C=CCN6CC[C@]43[C@@H]65)C2)C1: Not Active
5) O=C(c1ccc(OCCN2CCCCC2)cc1)c1c(-c2ccc(O)cc2)sc2cc(O)ccc12: Not Active
6) COc1ccc2c(c1)c(CC(=O)O)c(C)n2C(=O)c1ccc(Cl)cc1: Not Active
7) C[C@H]1C[C@H]2[C@@H]3CCC4=CC(=O)C=C[C@]4(C)[C@@]3(Cl)[C@@H](O)C[C@]2(C)[C@@]1(O)C(=O)CO: Not Active
8) Cc1cc2cc3c(C)cc(=O)oc3c(C)c2o1: Not Active

Asked: # value lookup — system Cathepsin G (Homo sapiens, UniProt P08311), readout IC50, item OC(CCN1CCCCC1)(c1ccccc1)C1CCCCC1 (configuration not stated); further: in other assays of this panel Not Active means under 50% inhibition at 10 µM;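 further: inhibition of Cathepsin G enzyme activity, tested on an AMC-conjugated peptide substrate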
Given back: Not Active

Asked: Try this compound too: Cc1cccc(Nc2ccncc2S(=O)(=O)NC(=O)NC(C)C)c1 [TORSEMIDE]
Given back: Not Active

Asked: # repeat for O=C1CC[C@H](N2C(=O)c3ccccc3C2=O)C(=O)N1
Given back: Not Active

Asked: Let us now turn to CCn1cc(C(=O)O)c(=O)c2cc(F)c(N3CCN(C)CC3)cc21
Given back: Not Active

Asked: Entry to check: COCCOC(=O)C1=C(C)NC(C)=C(C(=O)OC(C)C)C1c1cccc([N+](=O)[O-])c1 (configuration not stated)
Given back: Not Active

Where do these numbers come from? They come from ChEMBL document CHEMBL1909046.
